test_system: human recombinant HPK1 (Homo sapiens, UniProt Q92918)
Sequence (Q92918 whole entry): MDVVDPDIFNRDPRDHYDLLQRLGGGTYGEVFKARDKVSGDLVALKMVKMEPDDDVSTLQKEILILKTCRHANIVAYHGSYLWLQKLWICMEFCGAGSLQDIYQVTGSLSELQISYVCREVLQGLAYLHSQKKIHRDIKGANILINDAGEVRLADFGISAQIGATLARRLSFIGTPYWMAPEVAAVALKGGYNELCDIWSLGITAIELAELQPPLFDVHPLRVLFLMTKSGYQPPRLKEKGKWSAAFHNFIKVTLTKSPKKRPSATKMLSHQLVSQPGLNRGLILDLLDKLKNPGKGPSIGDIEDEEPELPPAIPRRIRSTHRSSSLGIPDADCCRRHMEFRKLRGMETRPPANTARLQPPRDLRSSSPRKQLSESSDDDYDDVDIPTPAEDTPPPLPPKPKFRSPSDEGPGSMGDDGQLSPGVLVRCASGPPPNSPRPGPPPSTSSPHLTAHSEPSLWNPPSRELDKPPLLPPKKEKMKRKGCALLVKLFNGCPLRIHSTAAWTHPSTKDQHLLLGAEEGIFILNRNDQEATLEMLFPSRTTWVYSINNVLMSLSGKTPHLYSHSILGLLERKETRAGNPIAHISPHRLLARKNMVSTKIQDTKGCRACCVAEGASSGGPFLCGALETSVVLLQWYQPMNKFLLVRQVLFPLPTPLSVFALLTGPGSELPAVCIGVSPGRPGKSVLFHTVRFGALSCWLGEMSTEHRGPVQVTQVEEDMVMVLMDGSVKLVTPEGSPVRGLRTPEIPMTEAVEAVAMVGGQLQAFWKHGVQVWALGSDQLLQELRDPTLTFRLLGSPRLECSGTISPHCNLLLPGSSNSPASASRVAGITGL
protocol: Inhibitory activity against human recombinant HPK1 (TR-FRET)
stated_conditions: ULight-p70S6K peptide, ATP at Km, room temperature, 1 hour, 0.32 to 1000 nM compound
pIC50: −log10 of the molar value.
metric_name: pIC50

Output pIC50 of COc1cccc(F)c1-c1nccc(Nc2cc(N3CC[C@H](NC(C)=O)C3)c(-c3cnn(C4CCOCC4)c3)cn2)n1
< 7.00

Output pIC50 of COc1cc(F)cc(F)c1-c1nccc(Nc2cc(N3CCC[C@H](O)C3)c(C#Cc3cnn(C(F)(F)F)c3)cn2)n1
≥ 8.00

Continuing:
Output pIC50 of COc1cccc(F)c1-c1nc(Nc2cc(N3CCC[C@H](O)C3)c(-c3cnn(CC(F)(F)F)c3)cn2)ccc1C(N)=O
≥ 8.00

---

test_system: human recombinant HPK1 (Homo sapiens, UniProt Q92918)
protocol: Inhibitory activity against human recombinant HPK1 (TR-FRET)
stated_conditions: ULight-p70S6K peptide, ATP at Km, room temperature, 1 hour, 0.32 to 1000 nM compound
Structures can show the parent of a compound that is named as a salt.
metric_name: IC50

Output IC50 of COc1cccc(F)c1-c1nc(Nc2cc(N3CC[C@H](F)[C@H](N)C3)c(-c3cnn(C(F)F)c3)cn2)ccc1C#N [Example 322, hydrochloride]
≤ 10 nM

Output IC50 of Nc1cncc(-c2nccc(Nc3cc(N4CCC[C@H](O)C4)c(C(=O)C4CC4)cn3)n2)c1 [Example 2]
10 to 50 nM

Output IC50 of CCn1cc(-c2cnc(Nc3ccc(C#N)c(-c4c(F)cccc4OC)n3)cc2N2CCC[C@H](N)C2)cn1 [Example 327, hydrochloride]
≤ 10 nM

We next turn to a different compound, shown below.
Output IC50 of COc1cc(CO)cc(F)c1-c1nccc(Nc2cc(N3CCC[C@H](O)C3)c(-c3cnn(C4CCOCC4)c3)cn2)n1 [Example 161]
≤ 10 nM

src = patent US20260347338A1
